Kindly supply the reported pEC50 values for the records listed here.
# ASSAYED_SYSTEM: T1, HeV-G
# T1 chain: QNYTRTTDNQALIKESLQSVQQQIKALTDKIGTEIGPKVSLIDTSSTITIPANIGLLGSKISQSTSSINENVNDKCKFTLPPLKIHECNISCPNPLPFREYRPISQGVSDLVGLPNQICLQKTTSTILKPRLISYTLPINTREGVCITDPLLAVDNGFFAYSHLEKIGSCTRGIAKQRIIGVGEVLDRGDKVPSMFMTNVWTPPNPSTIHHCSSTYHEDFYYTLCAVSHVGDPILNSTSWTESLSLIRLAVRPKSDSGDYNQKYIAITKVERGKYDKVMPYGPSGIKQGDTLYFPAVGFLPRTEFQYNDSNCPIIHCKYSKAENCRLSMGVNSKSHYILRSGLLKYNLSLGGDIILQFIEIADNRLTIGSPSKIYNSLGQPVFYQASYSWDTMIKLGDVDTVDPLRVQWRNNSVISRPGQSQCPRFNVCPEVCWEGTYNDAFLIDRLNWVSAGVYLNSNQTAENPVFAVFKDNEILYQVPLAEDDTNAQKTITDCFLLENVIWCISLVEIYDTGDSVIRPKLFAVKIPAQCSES
Numbers only, as −log10 of the molar value.

Record excerpt, results attached:
BINDER: HENV-150 (antibody, V domains shown) VH: EVQLLESGGGLVQPGGSLRLSCAASGFTFSSSAMSWVRQTPGKGLEWVSTISGSGANTYYAASVKGRFPISRDNSKNTLFLQMNSLRAEDTAVYYCAKVSTVTFGGHVPRGSYFDYWGQGTQVTVSS VL: SYVLTQPPSVSVAPGQTARIPCGGNNIGSKSVHWYQQKPGQAPVLVVYDENDRPSGIPERFSASKSGNTATLTISRVEAGDEADYYCQVWDSRSDHYVFGTGTKVTVL
pEC50: 9.48
--
BINDER: HENV-100 (antibody, V domains shown) VH: QVQLVQSGAEVKKPGASVKVSCKASGYTFTSYYINWVRQAPGQGLEWVGTINPSGGSTTYAQKFQGRVTVTRDTSTSTVYMDLSGLRSGDTAVYYCARDRKGLAATPVYSDYYYGMDVWGQGTTVTVSS VL: EIVLTQSPATLSLSPGERATLSCRASQSVSSFLAWYQQKPGQAPRLLISDASKRATGIPARFSGSGSGTDFSLTISSLEAEDFAVYYCQQSTNWRITFGQGTRLELK
pEC50: 9.33
--
BINDER: HENV-184 (antibody, V domains shown) VH: QVQLVQSGTEVKNPGSSVKVSCKASGGTFSGFGISWVRQAPGQGLEWMGGVLPIFGSPNYAQKFQGRVTITADESTGTAYMDLSSLRSDDTAMYYCARDQSGGFFDYWGQGTLVIVSS VL: EIVLTQSPATLSLSPGERATLSCRASQSVSSNLAWYQQKPGQAPRLLIYDASDRATGVPARFSGSGSGTDFTLTISSLEPEDFALYYCQQRYNWRVTFGQGTRLEIK
pEC50: 8.92
--
BINDER: HENV-242 (antibody, V domains shown) VH: QVQLVQSGAEVKKPGSSVTVSCKTSGGTFSGYAVSWVRQAPGQGLEWMGRIVPQFNIPNYAQKFQDRVTITADESTGTSYMELSSLRSDDTAVFYCARENIQTIFGVVAMMGGGGYFDSWGQGTLVTVSS VL: DIQMTQSPSSLSASVGDRVTITCQANQDINTYLNWYLQKPGKAPQLLVFDASNLVTGVPSRFSGGGSRTDFTLTIDSLQPEDIGTYYCQQYDHLPRRTFTFGPGTKVDLK
pEC50: 8.18

Now let's try a different one.
Indicate the recorded pEC50 value for this binder: HENV-142 (antibody, V domains shown) VH: QVRLQESGPRLVKPSQTLSLTCTVSGGSISSRDYYWSWIRQHPGKGLEWIGYIYYSGTTYYNPSLESRVTLSLDTSKNQFSLDLTSVTAADTAVYHCARVWLGGGVFDFWGQGTLVTVSA VL: EIVMTQSPDTLSVSPGERATLSCRASHSVTTNLAWYQQRPGQAPRLLIFDASTRATGIPARFSGSGSGTEFTLTIGSLQSEDFAVYYCQQYNDGRTFGQGTKVEIK
8.73
